Measured IC50 accompanies every entry in the list below.
molecular target: CBL-B (Homo sapiens, UniProt Q13191); construct: GST; experiment: CBL-B TR-FRET IC50 screening (E1/E2 ubiquitination, Biotin-Ubiquitin, Anti GST-Tb donor / Streptavidin-d2 acceptor); assay type: biochemical; details: second part of Table 2 (head 'Patent Cmpd No / Updated Activity'); same CBL-B TR-FRET IC50 bins A-F; read-out: Updated Activity
Sequence (Q13191 whole entry): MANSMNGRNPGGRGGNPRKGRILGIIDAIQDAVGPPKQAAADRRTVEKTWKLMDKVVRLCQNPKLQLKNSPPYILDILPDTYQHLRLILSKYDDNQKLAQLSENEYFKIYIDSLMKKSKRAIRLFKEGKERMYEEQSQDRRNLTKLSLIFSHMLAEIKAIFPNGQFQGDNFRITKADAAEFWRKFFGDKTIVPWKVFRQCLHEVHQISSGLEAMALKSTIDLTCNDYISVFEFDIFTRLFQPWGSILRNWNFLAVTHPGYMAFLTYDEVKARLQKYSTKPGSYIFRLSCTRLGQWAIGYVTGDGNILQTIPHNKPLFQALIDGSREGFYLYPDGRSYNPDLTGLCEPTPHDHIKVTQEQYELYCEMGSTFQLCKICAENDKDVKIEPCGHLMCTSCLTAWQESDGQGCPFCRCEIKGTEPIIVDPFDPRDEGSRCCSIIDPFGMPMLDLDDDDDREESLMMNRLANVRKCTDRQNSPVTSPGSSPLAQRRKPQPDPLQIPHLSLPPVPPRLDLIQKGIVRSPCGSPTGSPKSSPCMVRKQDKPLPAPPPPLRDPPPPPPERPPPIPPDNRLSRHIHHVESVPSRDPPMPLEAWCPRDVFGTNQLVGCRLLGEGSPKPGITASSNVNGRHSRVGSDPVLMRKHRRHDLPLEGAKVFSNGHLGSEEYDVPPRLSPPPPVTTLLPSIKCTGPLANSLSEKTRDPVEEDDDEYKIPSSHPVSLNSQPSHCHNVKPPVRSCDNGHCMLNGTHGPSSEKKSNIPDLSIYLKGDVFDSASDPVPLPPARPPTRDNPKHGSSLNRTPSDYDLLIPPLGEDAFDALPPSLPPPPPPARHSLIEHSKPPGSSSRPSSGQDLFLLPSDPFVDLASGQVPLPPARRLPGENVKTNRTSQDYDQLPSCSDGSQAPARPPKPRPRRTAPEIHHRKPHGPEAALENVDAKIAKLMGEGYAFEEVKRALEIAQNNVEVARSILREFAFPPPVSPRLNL

Known results for compounds:
C[C@H](c1cc(C(F)(F)F)c2cn(-c3cccc([C@H](c4nncn4C)C4CCC4)c3)c(=O)n2c1)N1CCC[C@H](C(F)(F)F)C1 (single isomer, unassigned) [Compound 580]: 3 to 10 µM
C[C@@H](c1cc(C(F)(F)F)c2cn(-c3cccc([C@H](c4nncn4C)C4CCC4)c3)c(=O)n2c1)N1CC[C@@H](F)C1 (single isomer, unassigned) [Compound 501]: < 0.1 µM

Let us move to another entry and its IC50.
Give IC50 for CN(Cc1cc(C(F)(F)F)c2cn(-c3cccc([C@H](c4nncn4C)C4CCC4)c3)c(=O)n2c1)S(C)(=O)=O [Compound 520]
< 0.1 µM
